Test system: A549
Assay Procedure: Antiproliferative activity against human A549 cells by SRB assay
Format: functional, cell-based
Conditions Used: a549
pIC50: −log10 of the molar value.

Compound | pIC50
O=C(c1ccccc1)N1Cc2ccccc2C(c2ccccc2)c2ccccc21 (stereo in doubt; 17) | < 5.30
